assay_info: AP1 Signaling Pathway (AID 357);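 note: ME-180 reporter cells stimulated with EGF at its EC50 level; % is set by controls: 0 for no effect and ±100 for the full control effect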
condition_info: ME-180 AP-1-bla reporter, EGF-induced, beta-lactamase ratio, 5 h; at 17.2 µM (top of the series) unless noted
Inconclusive results are not listed.
Kindly supply the reported activity change, negative = inhibition values for the records listed here.
Numbers only, in %.

Could you tell me activity change, negative = inhibition for each of these molecules? They are listed below.
1. CCOP(=O)(c1ccccc1)C1(C#N)CCCC1 (stereo unspecified)
2. COc1cccc(/C(O)=C2/C(=O)C(=O)N(CCN(C)C)C2c2ccc(Br)cc2)c1 (stereo unspecified)
3. COc1cccc(NC(=O)C2CC(=O)n3cnnc3S2)c1 (stereo unspecified)
4. Cc1cc(C)n(CC(=O)N2c3ccccc3Sc3ccccc32)n1
5. COc1ccc(OC)c(C2C(C(=O)c3sc(C)nc3C)=C(O)C(=O)N2CCN2CCOCC2)c1 (stereo unspecified)

Response:
8.95
-1.11
-17.5
-8.25
4.44

Items follow; give activity change, negative = inhibition for each.
1. CNC(=O)CC(C(=O)O)c1ccc(OC(C)C)cc1 (stereo unspecified)
2. COC(=O)C(NC(C)=O)(Nc1nc2c(s1)CCCC2)C(F)(F)F (stereo unspecified)
3. COc1ccccc1-c1nnc2sc(COc3ccccc3)nn12
4. CN1C2C=C3C(C#N)=C(N)C(C#N)(C#N)[C@@H](c4ccsc4)[C@@H]3C1CC2 (stereo partly specified)
5. CC(=O)C1=C(O)C(=O)N(c2ccc(S(N)(=O)=O)cc2)C1c1ccccc1F (stereo unspecified)

Response:
[5.59, 1.18, -9.17, 20.1, -4.17]

Query: Annotate the molecule CSC(=Nc1ccccc1)C1=C(O)COC1=O with its measured activity change, negative = inhibition.
Response: 3.1

----------
System: CP269
assay_info: qHTS profiling for inhibitors of Plasmodium falciparum proliferation (AID 504749); note: nearly all actives have a fitted effect of over 60% in size; note: potency is the fitted concentration of half-maximal effect
condition_info: P. falciparum in erythrocytes, SYBR Green DNA, 72 h; series mostly up to 28.7 µM
Results filed as inconclusive are left out. Calls of active or inactive are those of the source. Calls follow the shape of the dose curve; as a rule, active = well fitted inhibition curve with a large enough effect; inconclusive = small, poorly fitted or top-dose-only effect; inactive = flat fitted curve, though single readings scatter.
measure: Potency

Example entries begin here.
CC[C@@]1(O)C[C@H](O[C@H]2C[C@@H](N(C)C)[C@@H](O[C@H]3C[C@@H](O)[C@@H](O[C@H]4CCC(=O)[C@@H](C)O4)[C@@H](C)O3)[C@@H](C)O2)c2c(cc3c(c2O)C(=O)c2c(O)cccc2C3=O)[C@H]1C(=O)OC ... 849 nM (active)
CC1=C(c2ccc(NN=C(C#N)C#N)cc2)NNC(=O)C1 ... inactive
CNC1=CN(O)C(c2ccccc2)=c2cc(Cl)ccc2=N1 ... 3790 nM (active)
CNC1C(O)C(OC2C(NC(=O)C(O)CN)CC(N)C(OC3OC(CN)C(O)C(O)C3O)C2O)OCC1(C)O (stereo not given) ... inactive
CCCCC(=O)OCC(=O)[C@]1(O)Cc2c(O)c3c(c(O)c2[C@H](OC2CC(NC(=O)C(F)(F)F)C(O)C(C)O2)C1)C(=O)c1c(OC)cccc1C3=O (stereo not given in full) ... 1690 nM (active)

For every record below, what is its Potency?
1. NC(C(=O)O)c1ccc(O)cc1 (stereo not given)
2. CC(=O)O[C@]1(C(C)=O)CCC2C3CCC4=CC(=O)CCC4(C)C3(F)C(O)CC21C (stereo not given in full)
3. CCC(C(=O)C(C)C(O)C(C)CCc1ccc(C)c(O)c1C(=O)O)C1OC(CC)(C2CC[C@@](O)(CC)C(C)O2)CC1C (stereo not given in full)

Response:
["inactive", "inactive", "757 nM (active)"]

# return Potency for each item in the list
1. CC[C@@H](C)C(N)C(=O)O (stereo not given in full)
2. O=c1[nH]c(=O)n(C2C[C@H](O)[C@@H](CO)O2)cc1C(F)(F)F (stereo not given in full)
3. C=NC(C(=O)NC1C(=O)N2C1SC(C)(C)C2C(=O)O)c1ccccc1 (stereo not given)
4. CC(C)CCCC(C)C1CC(=O)C2=C3CCC4CC(O)CCC4(C)C3CCC21C (stereo not given)

Response:
1. inactive
2. inactive
3. inactive
4. inactive

Could you report Potency for every entry in the following list?
1. NCCCCC(N)C(=O)O (stereo not given)
2. OCC1O[C@H](O[C@H]2C(O)C(O)C(O)O[C@@H]2CO)C(O)C(O)C1O (stereo not given in full)
3. CCCCCOC(=O)Nc1nc(=O)n(C2O[C@H](C)[C@@H](O)[C@@H]2O)cc1F (stereo not given in full)

Response:
["inactive", "inactive", "inactive"]

Provide Potency values for the following items, in order.
1. CC(O)C1CCC2C3CCC4CC(O)CCC4(C)C3CCC12C (stereo not given)
2. C[C@@H](O)[C@@H]1C(=O)N2C(C(=O)O)=C([C@H]3CCCO3)S[C@H]12
3. CNC1CCc2cc(OC)c(OC)c(OC)c2-c2ccc(OC)c(=O)cc21 (stereo not given)
4. O=[N+]([O-])O[C@H]1CO[C@H]2[C@@H]1OC[C@H]2O
5. C[C@H]1[C@@H](OC(=O)CCC(=O)O)OC2OC3(C)CC[C@H]4[C@H](C)CC[C@@H]1[C@@]24OO3 (stereo not given in full)

Response:
1: inactive; 2: inactive; 3: inactive; 4: inactive; 5: 4.8 nM (active)

----------
Tested on: CP203
assay_info: qHTS profiling for inhibitors of Plasmodium falciparum proliferation (AID 504749); note: nearly all actives have a fitted effect of over 60% in size
condition_info: P. falciparum in erythrocytes, SYBR Green DNA, 72 h; series mostly up to 28.7 µM
Results filed as inconclusive are left out. Calls of active or inactive are those of the source. The call rests on the fitted dose curve; in most records, active means well fitted inhibition curve with a large enough effect; inconclusive means small, poorly fitted or top-dose-only effect; inactive means flat fitted curve, though single readings scatter.
Select the correct class. Options are True = active, False = inactive and nothing else.

Recorded results for 10 compounds are shown here.
CCN1CCN(C(=O)NC(C(=O)NC2C(=O)N3C(C(=O)O)=C(CSc4nnnn4C)CSC23)c2ccc(O)cc2)C(=O)C1=O (stereo unspecified) ... False
CO/N=C(/C(=O)N[C@@H]1C(=O)N2C(C(=O)O)=C(CSC(=O)c3ccco3)CSC12)c1csc(N)n1 (stereo partly specified) ... False
CN[C@H](C)CCC=C(C)C ... True
COC(=O)C1[C@@H](OC)C(OC(=O)COc2ccc(OC)cc2)C[C@@H]2CN3CCc4c([nH]c5cc(OC)ccc45)[C@H]3C[C@H]12 (stereo partly specified) ... False
OCC1O[C@H](O[C@H]2C(O)C(O)C(O)O[C@@H]2CO)C(O)C(O)C1O (stereo partly specified) ... False
O=C(OC[C@@H]1O[C@@](O)(COC(=O)c2cccnc2)[C@H](OC(=O)c2cccnc2)[C@H]1OC(=O)c1cccnc1)c1cccnc1 ... False
CCCCC(=O)OC1CCC2C3CCc4cc(O)ccc4C3CC[C@]12C (stereo partly specified) ... False
CC1=C(/C=C/C(C)=C\C=C\C(C)=C\C=C\C=C(C)\C=C\C=C(C)\C=C\C2=C(C)C[C@@H](O)CC2(C)C)C(C)(C)C[C@H](O)C1 ... False
C/C(=C(/CCOC(=O)C(C)C)SS/C(CCOC(=O)C(C)C)=C(\C)N(C=O)Cc1cnc(C)nc1N)N(C=O)Cc1cnc(C)nc1N ... False
C[C@@H]1C(SC2Cn3cnc[n+]3C2)=C(C(=O)[O-])N2C(=O)[C@H]([C@@H](C)O)[C@@H]12 (stereo partly specified) ... False

Query: Test call for this compound, please: CCC(=O)OC1C(N(C)C)CC(C)O[C@H]1O[C@H]1[C@H](C)[C@@H](O[C@H]2CC(OC)[C@@H](O)C(C)O2)[C@H](C)C(=O)O[C@@H](CC)[C@](C)(O)[C@@H](O)[C@H](C)C(=O)[C@@H](C)C[C@]1(C)O (stereo partly specified)
Response: False

Query: recorded result category for C/C(=C(/CCO)SS/C(CCO)=C(\C)N(C=O)Cc1cnc(C)nc1N)N(C=O)Cc1cnc(C)nc1N in this test
Response: False

----------
assay_info: Stat Signaling Pathway (AID 446);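 note: ME-180 cervical cancer cells given 40 pM IL-6 alongside compound; SIE-controlled beta-lactamase reporter measured as 460/530 nm FRET emission ratio; % is set by controls: 0 for no effect and ±100 for the full control effect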
condition_info: ME-180 (cervical carcinoma) SIE beta-lactamase reporter, IL-6 stimulated, 5 h; at 17.2 µM (top of the series) unless noted
Results filed as inconclusive are left out.
Would you mind telling me the reported activity, negative = inhibition of each entry?
Numbers only, in %.

Known activity, negative = inhibition results, listed for orientation:
CCOC(=O)c1c(C)n(C)c2ccc(OC)c(NC(=O)CCN3CCSCC3)c12 ... 7.06
COc1ccc(OC)c(C2/C(=C(/O)c3ccc(C)cc3)C(=O)C(=O)N2Cc2ccco2)c1 (stereo not drawn) ... -18.2
Cc1c(/C(O)=C2/C(=O)C(=O)N(CCN3CCOCC3)C2c2cccnc2)cnn1-c1ccccc1 (stereo not drawn) ... -0.626
O=S(=O)(c1cccc2nsnc12)N1CCN(C/C=C/c2ccccc2)CC1 ... -15.9
CCCc1cc(C(=O)Cc2ccc(F)cc2)c(O)cc1O ... -25.5

Below is a list of compounds. For each, state its recorded activity, negative = inhibition.
1. O=C(O)CCCC(=O)N1CCN(C(c2ccccc2)c2ccccc2)CC1
2. CC1N(O)C(c2ccc(Cl)cc2Cl)N(O)C1(C)C (stereo not drawn)
3. CCOC(=O)c1ccc(CSc2ncn[nH]2)o1
4. COC(=O)C1C(=O)NCC1c1ccccc1 (stereo not drawn)
5. CN1CCN(/C=N/c2sc3c(c2C#N)CCCCC3)CC1
6. CC(C)(C)OC(=O)NCCC(=O)Oc1ccc2ccc(=O)oc2c1

Response:
1: 0.344; 2: 2.16; 3: 5.39; 4: 7.06; 5: -3.82; 6: 12.7

Fill in activity, negative = inhibition for each of the 6 compounds listed.
1. CC1=CC=CN2CC(O)CN=C12 (stereo not drawn)
2. CCC(NC(=O)NC1=NCCS1)(C(F)(F)F)C(F)(F)F
3. Cc1cccc(N(CC(O)CN(C)C)S(=O)(=O)c2ccccc2)c1 (stereo not drawn)
4. CC1(C)CC(=O)C2=C(C1)OC(N)=C(C#N)[C@@]21C(=O)N(CC(N)=O)c2ccccc21
5. N#C/C(C(=O)NCc1ccccc1)=C1\SC(CCO)C(=O)N1c1ccccc1 (stereo not drawn)
6. COc1ccc(C2=Nn3c(nnc3-c3cccnc3)SC2)cc1OC

Response:
1: 3.52; 2: 15.4; 3: 3.62; 4: -18.4; 5: -2.91; 6: -17.6

Hey, can you go through the list below and give me activity, negative = inhibition for every item?
1. CC(=O)CCn1c(=O)n(CCC(C)=O)c(=O)n(CCC(C)=O)c1=O
2. CC(C)OC(=O)CCNc1n[nH]c(=O)[nH]c1=O
3. COc1ccc(OC)c(NS(=O)(=O)c2ccc(N3CCCC3=O)cc2)c1
4. Cc1c(N2C(=O)SC(CC(=O)O)C2=O)c(=O)n(-c2ccccc2)n1C (stereo not drawn)
5. COC(=O)c1sc(NC(=O)C(C)C)c(C(=O)OC)c1C
6. CC1(C)Cc2c(sc3nc(SCC(=O)NCc4ccco4)n(-c4ccccc4)c(=O)c23)CS1

Response:
-1.84
0.163
11.3
6.13
1.94
-26.5
